biological target: MAPRE1 in the presence of FKBP12 (Homo sapiens, UniProt P62942+Q15691); construct: His-tag (N); assay: Spectral shift target engagement assay, binding to MAPRE1 in the presence of 10 μM FKBP12 (ternary); details: difference between EC50 of the %Tbound, ternary curve and KT,2; [Ttot] = 5 nM
Sequence (Q15691 whole entry): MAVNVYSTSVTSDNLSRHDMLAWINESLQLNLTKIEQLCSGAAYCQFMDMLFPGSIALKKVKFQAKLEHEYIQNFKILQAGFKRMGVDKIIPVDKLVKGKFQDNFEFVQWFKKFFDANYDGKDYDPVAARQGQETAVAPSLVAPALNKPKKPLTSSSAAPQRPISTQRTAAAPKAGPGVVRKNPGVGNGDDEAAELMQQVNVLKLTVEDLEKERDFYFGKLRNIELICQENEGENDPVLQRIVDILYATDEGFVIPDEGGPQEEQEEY
Sequence (P62942 whole entry): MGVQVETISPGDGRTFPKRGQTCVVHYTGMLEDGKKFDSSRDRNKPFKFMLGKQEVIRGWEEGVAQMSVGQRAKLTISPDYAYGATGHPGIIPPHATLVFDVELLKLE
Provide the reported 100 × (EC50 %Tbound ternary − 0.5 [Ttot] − KT,2)/KT,2 of each item.
Give just the number in %; leave the unit off.

Kindly indicate its recorded 100 × (EC50 %Tbound ternary − 0.5 [Ttot] − KT,2)/KT,2. Item: C=C1CCN2C(=O)COc3cccc(c3)C(CCc3ccc(OC)c(OC)c3)OC(=O)C3CCCCN3C(=O)C(=O)C(C)(C)COC(=O)C(CC)NC(=O)C2C1 (stereo not drawn) [R,S-SLF-3]
0.8

Kindly indicate its recorded 100 × (EC50 %Tbound ternary − 0.5 [Ttot] − KT,2)/KT,2. Item: C=C1CCN2C(=O)COc3cccc(c3)C(CCc3ccc(OC)c(OC)c3)OC(=O)C3CCCCN3C(=O)C(=O)C(C)(C)COC(=O)C(C(F)(F)F)NC(=O)C2C1 (stereo not drawn) [R,S-SLF-8]
1.1

Kindly indicate its recorded 100 × (EC50 %Tbound ternary − 0.5 [Ttot] − KT,2)/KT,2. Item: C=C1CCN2C(=O)COc3cccc(c3)C(CCc3ccc(OC)c(OC)c3)OC(=O)C3CCCCN3C(=O)C(=O)C(C)(C)COC(=O)C(C)(C)NC(=O)C2C1 (stereo not drawn) [R,--SLF-10]
1.2

---

target: FKBP12 in the presence of MAPRE1 (Homo sapiens, UniProt P62942+Q15691); test: Spectral shift target engagement assay, binding to FKBP12 in the presence of 10 μM MAPRE1 (ternary); details: 40 nM FKBP12-NTA, 10 μM MAPRE1; read-out: EC50 of the %Cbound, ternary curve (measured)
Sequence (P62942 whole entry): as above
Sequence (Q15691 whole entry): as the sequence (Q15691 whole entry) above
metric: pEC50
# pEC50 is unitless: minus log10 of the molar concentration; print number only

Kindly indicate its recorded pEC50. Item: C=C1CCN2C(=O)COc3cccc(c3)C(CCc3ccc(OC)c(OC)c3)OC(=O)C3CCCCN3C(=O)C(=O)C(C)(C)COC(=O)C(CC)NC(=O)C2C1 (stereo not drawn)
7.31

Kindly indicate its recorded pEC50. Item: C=C1CCN2C(=O)COc3cccc(c3)C(CCc3ccc(OC)c(OC)c3)OC(=O)C3CCCCN3C(=O)C(=O)C(C)(C)COC(=O)C(C)NC(=O)C2C1 (stereo not drawn) [R,S-SLF-1a]
7.35

Kindly indicate its recorded pEC50. Item: C=C1CCN2C(=O)COc3cccc(c3)C(CCc3ccc(OC)c(OC)c3)OC(=O)C3CCCCN3C(=O)C(=O)C(C)(C)COC(=O)C(C)NC(=O)C2C1 (stereo not drawn) [S,S-SLF-1d]
7.54

Kindly indicate its recorded pEC50. Item: C=C1CCN2C(=O)COc3cccc(c3)C(CCc3ccc(OC)c(OC)c3)OC(=O)C3CCCCN3C(=O)C(=O)C(C)(C)COC(=O)C(C(F)(F)F)NC(=O)C2C1 (stereo not drawn)
7.19

Kindly indicate its recorded pEC50. Item: C=C1CCN2C(=O)COc3cccc(c3)C(CCc3ccc(OC)c(OC)c3)OC(=O)C3CCCCN3C(=O)C(=O)C(C)(C)COC(=O)C(CN)NC(=O)C2C1 (stereo not drawn)
6.96

Kindly indicate its recorded pEC50. Item: C=C1CCN2C(=O)COc3cccc(c3)C(CCc3ccc(OC)c(OC)c3)OC(=O)C3CCCCN3C(=O)C(=O)C(C)(C)COC(=O)C(C)(C)NC(=O)C2C1 (stereo not drawn)
7.40
